tested on: HL-60(TB); assay: in vitro leukemia cell growth inhibition (NCI screen)
# cytotoxicity log GI50 >= -5 M gives 1.0, anything below gives 0.0

| Compound | Study system | Label class |
| --- | --- | --- |
| Cc1nc2c(n1CCCl)C(=O)c1ccccc1C2=O | HL-60(TB) | 1.0 |

q: Has O=C(O)CCCc1nc2c(n1Cc1ccccc1)C(=O)c1ccccc1C2=O a recorded cytotoxicity log GI50 greater than or equal to -5 M?
a: 1.0

q: Has CC(=O)NC1=C(NCc2ccc(Cl)cc2)C(=O)c2ccccc2C1=O a recorded cytotoxicity log GI50 greater than or equal to -5 M?
a: 0.0

q: Has NC1=C(NC(=O)Cc2ccc(F)cc2)C(=O)c2ccccc2C1=O a recorded cytotoxicity log GI50 greater than or equal to -5 M?
a: 1.0
